molecular target: Adrenergic receptor alpha (Rattus norvegicus) (UniProt P15823+P23944+P43140+P22086+P19328+P22909); test: Antagonistic blocking activity at alpha adrenergic receptor by NE induced contractions of the epididymal portion of isolated rat vas deferens at the dose of 20 uM; format: functional, tissue-based; design: scale not given: the % may be the effect or the level left
param class (str): category from Activity; see ranges low interval: < 40%; middle interval: ≥ 40% and < 70%; high interval: ≥ 70%

> print(dat)
                                test.smiles      class.label
1  c1ccc2c(CNCCCCCCNCCSSCCNCCCCCCNCc3cccc4ccccc34)cccc2c1     low interval
2  Clc1cc(Cl)cc(CNCCCCCCNCCSSCCNCCCCCCNCc2cc(Cl)cc(Cl)c2)c1  middle interval
3  Clc1ccc(CNCCCCCCNCCSSCCNCCCCCCNCc2ccc(Cl)cc2Cl)c(Cl)c1  middle interval

Prompt: # bin label for CS(=O)(=O)c1ccccc1CNCCCCCCNCCSSCCNCCCCCCNCc1ccccc1S(C)(=O)=O
Completion: low interval

Prompt: # bin label for O=[N+]([O-])c1c(CNCCCCCCNCCSSCCNCCCCCCNCc2ccc(O)c(O)c2[N+](=O)[O-])ccc(O)c1O
Completion: low interval

Prompt: # bin label for Fc1cccc(CNCCCCCCNCCSSCCNCCCCCCNCc2cccc(F)c2)c1
Completion: high interval

Prompt: # bin label for Clc1ccc(CNCCCCCCNCCSSCCNCCCCCCNCc2ccc(Cl)cc2)cc1
Completion: middle interval

Prompt: # bin label for c1ccc2cc(CNCCCCCCNCCSSCCNCCCCCCNCc3ccc4ccccc4c3)ccc2c1
Completion: low interval

Prompt: # bin label for Fc1ccc(CNCCCCCCNCCSSCCNCCCCCCNCc2ccc(F)cc2)cc1
Completion: high interval

Prompt: # bin label for c1cc(CNCCCCCCNCCSSCCNCCCCCCNCc2ccsc2)cs1
Completion: low interval

Prompt: # bin label for O=[N+]([O-])c1cc(O)c(O)cc1CNCCCCCCNCCSSCCNCCCCCCNCc1cc(O)c(O)cc1[N+](=O)[O-]
Completion: high interval

Prompt: # bin label for c1coc(CNCCCCCCNCCSSCCNCCCCCCNCc2ccco2)c1
Completion: high interval

Prompt: # bin label for Fc1ccccc1CNCCCCCCNCCSSCCNCCCCCCNCc1ccccc1F
Completion: middle interval

---

molecular target: Adrenergic receptor alpha (Rattus norvegicus) (UniProt P15823+P23944+P43140+P22086+P19328+P22909); experiment: Antagonistic blocking activity at alpha adrenergic receptor by NE induced contractions of the epididymal portion of isolated rat vas deferens at the dose of 20 uM; format: functional, tissue-based; design: scale not given: the % may be the effect or the level left
param class (str): category from Activity; see ranges category 1 = under 40%, category 2 = from 40% up to 60%, category 3 = 60% and over

Please review the following examples before continuing.
> print(dat)
                                test.smiles  class.label
1  c1cncc(CNCCCCCCNCCSSCCNCCCCCCNCc2cccnc2)c1   category 1
2  c1ccc2ncc(CNCCCCCCNCCSSCCNCCCCCCNCc3cnc4ccccc4c3)cc2c1   category 1
3  c1cc(CNCCCCCCNCCSSCCNCCCCCCNCc2ccncc2)ccn1   category 1

Prompt: # bin label for Brc1cccc(CNCCCCCCNCCSSCCNCCCCCCNCc2cccc(Br)c2)c1
Completion: category 2

Prompt: # bin label for O=[N+]([O-])c1ccccc1CNCCCCCCNCCSSCCNCCCCCCNCc1ccccc1[N+](=O)[O-]
Completion: category 2

Prompt: # bin label for COc1cc(CNCCCCCCNCCSSCCNCCCCCCNCc2cc(OC)c(OC)cc2[N+](=O)[O-])c([N+](=O)[O-])cc1OC
Completion: category 2

Prompt: # bin label for O=[N+]([O-])c1cccc(CNCCCCCCNCCSSCCNCCCCCCNCc2cccc([N+](=O)[O-])c2)c1
Completion: category 2

Prompt: # bin label for c1csc(CNCCCCCCNCCSSCCNCCCCCCNCc2cccs2)c1
Completion: category 3

Prompt: # bin label for COc1ccccc1CNCCCCCCNCCSSCCNCCCCCCNCc1ccccc1OC
Completion: category 3

---

Reported values of Activity for individual entries
molecular target: Adrenergic receptor alpha (Rattus norvegicus) (UniProt P15823+P23944+P43140+P22086+P19328+P22909); assay: Antagonistic blocking activity at alpha adrenergic receptor by NE induced contractions of the epididymal portion of isolated rat vas deferens at the dose of 20 uM; type: functional, tissue-based; design: scale not given: the % may be the effect or the level left

Answered examples (5):
> print(dat)
                                test.smiles  readout.value
1  O=[N+]([O-])c1ccc(CNCCCCCCNCCSSCCNCCCCCCNCc2ccc([N+](=O)[O-])cc2)cc1            41%
2  COc1cccc([N+](=O)[O-])c1CNCCCCCCNCCSSCCNCCCCCCNCc1c(OC)cccc1[N+](=O)[O-]            42%
3  c1c[nH]c(CNCCCCCCNCCSSCCNCCCCCCNCc2ccc[nH]2)c1           100%
4  c1ccc(CNCCCCCCNCCSSCCNCCCCCCNCc2ccccn2)nc1            78%
5  COc1ccc(CNCCCCCCNCCSSCCNCCCCCCNCc2ccc(OC)c(OC)c2[N+](=O)[O-])c([N+](=O)[O-])c1OC            27%

Recorded Activity (molecule COc1c(C)cccc1CNCCCCCCNCCSSCCNCCCCCCNCc1cccc(C)c1OC ): 59%

Recorded Activity (molecule CSc1ccccc1CNCCCCCCNCCSSCCNCCCCCCNCc1ccccc1SC ): 66%

Recorded Activity (molecule Cn1cccc1CNCCCCCCNCCSSCCNCCCCCCNCc1cccn1C ): 100%

Recorded Activity (molecule Clc1ccc(CNCCCCCCNCCSSCCNCCCCCCNCc2ccc(Cl)c(Cl)c2)cc1Cl ): 39%

Recorded Activity (molecule c1ccc2c(CNCCCCCCNCCSSCCNCCCCCCNCc3ccnc4ccccc34)ccnc2c1 ): 32%

Recorded Activity (molecule Brc1ccc(CNCCCCCCNCCSSCCNCCCCCCNCc2ccc(Br)cc2)cc1 ): 34%

---

biological target: Adrenergic receptor alpha (Rattus norvegicus) (UniProt P15823+P23944+P43140+P22086+P19328+P22909); assay: Antagonistic blocking activity at alpha adrenergic receptor by NE induced contractions of the epididymal portion of isolated rat vas deferens at the dose of 20 uM; format: functional, tissue-based; set-up: scale not given: the % may be the effect or the level left
Reported values of Activity for individual entries
Field: numeric (%). Do not append units.

Recorded Activity (compound Cc1ccc(CNCCCCCCNCCSSCCNCCCCCCNCc2ccc(C)o2)o1 ): 100

Recorded Activity (compound Brc1ccccc1CNCCCCCCNCCSSCCNCCCCCCNCc1ccccc1Br ): 58

Recorded Activity (compound Clc1cccc(CNCCCCCCNCCSSCCNCCCCCCNCc2cccc(Cl)c2)c1 ): 46

All figures here come from ChEMBL document CHEMBL1122841.
